# maps each entry to its pEC50
system: AML cell line MV4-11; test: Anticancer activity: Alamar Blue 3-day proliferation assay; type: cell-based; settings: Homo sapiens, MV4-11 cells, 72 h incubation, read-out: MV4-11 EC50_μM
In plain terms, pEC50 is the concentration in mol/L turned into minus its base-10 logarithm.

See these solved cases before continuing.
[
  {
    "MOLECULE": "CCNC(=O)CC1N=C(c2c(F)cccc2F)c2cc(OC)ccc2-c2cn(C)c(=O)cc21 (racemic)",
    "TGT": "AML cell line MV4-11",
    "pEC50": 7.89
  },
  {
    "MOLECULE": "CCOC(=O)CC1N=C(c2c(F)cccc2F)c2cc(OC)ccc2-c2cn(C)c(=O)cc21 (racemic)",
    "TGT": "AML cell line MV4-11",
    "pEC50": 8.30
  },
  {
    "MOLECULE": "CCNC(=O)CC1N=C(c2ccc(Cl)cc2)c2cc(C(F)(F)F)ccc2-c2cn(C)c(=O)cc21 (racemic)",
    "TGT": "AML cell line MV4-11",
    "pEC50": 7.40
  }
]

Next molecule, please.
Query: pEC50; subject: CCNC(=O)CC1N=C(c2ccc(Cl)cc2C)c2cc(OC)ccc2-c2cn(C)c(=O)cc21 (racemic)
Result: 8.10

Origin of the recorded values: patent US10689390B2
